- assay-target: UniProt:P06276
- Sequence (P06276 whole entry): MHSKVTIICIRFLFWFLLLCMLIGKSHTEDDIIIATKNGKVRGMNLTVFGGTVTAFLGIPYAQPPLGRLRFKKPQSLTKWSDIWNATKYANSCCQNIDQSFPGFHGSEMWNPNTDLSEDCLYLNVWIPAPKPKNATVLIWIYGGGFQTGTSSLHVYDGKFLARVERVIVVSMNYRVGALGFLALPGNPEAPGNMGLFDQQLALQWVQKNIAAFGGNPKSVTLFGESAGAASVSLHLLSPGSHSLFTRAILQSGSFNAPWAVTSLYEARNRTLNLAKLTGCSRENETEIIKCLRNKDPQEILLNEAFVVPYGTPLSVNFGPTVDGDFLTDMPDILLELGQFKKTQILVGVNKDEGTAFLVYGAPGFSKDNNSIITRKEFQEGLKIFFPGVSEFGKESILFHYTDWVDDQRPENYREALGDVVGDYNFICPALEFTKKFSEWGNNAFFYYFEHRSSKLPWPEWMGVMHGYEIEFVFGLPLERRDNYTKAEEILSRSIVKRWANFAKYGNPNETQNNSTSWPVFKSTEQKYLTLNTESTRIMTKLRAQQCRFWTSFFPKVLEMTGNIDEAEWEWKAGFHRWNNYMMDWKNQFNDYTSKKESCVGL
- assay-info: Inhibition of human plasma BuchE after 60 mins by carbamylation assay
- Assay type: cell-free

input-smiles: O=C(NCc1ccccc1)O[C@H]1CO[C@H]2[C@@H]1OC[C@H]2O[N+](=O)[O-]
IC50 / nM: 3.6

----------
Quick list: inhibition per entry.
- assay-target: Acetylcholinesterase (Electrophorus electricus) (UniProt O42275)
- Sequence (O42275 24-633 limits assumed): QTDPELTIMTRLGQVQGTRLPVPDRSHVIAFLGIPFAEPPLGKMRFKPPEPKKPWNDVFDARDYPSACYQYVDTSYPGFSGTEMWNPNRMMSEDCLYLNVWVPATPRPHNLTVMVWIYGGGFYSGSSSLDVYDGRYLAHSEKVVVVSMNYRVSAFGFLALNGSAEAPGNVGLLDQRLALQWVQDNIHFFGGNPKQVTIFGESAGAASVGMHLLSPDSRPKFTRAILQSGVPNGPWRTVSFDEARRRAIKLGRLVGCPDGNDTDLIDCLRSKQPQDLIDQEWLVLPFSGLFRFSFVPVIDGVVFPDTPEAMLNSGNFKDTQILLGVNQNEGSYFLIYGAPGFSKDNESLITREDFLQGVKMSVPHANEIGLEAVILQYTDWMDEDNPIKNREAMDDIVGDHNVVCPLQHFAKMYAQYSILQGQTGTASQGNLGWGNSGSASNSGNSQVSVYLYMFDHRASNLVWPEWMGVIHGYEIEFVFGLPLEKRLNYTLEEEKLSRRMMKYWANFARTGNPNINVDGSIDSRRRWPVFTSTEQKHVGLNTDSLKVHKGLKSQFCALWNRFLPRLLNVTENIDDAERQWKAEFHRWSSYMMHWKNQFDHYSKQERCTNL
- assay-info: Inhibition of electric eel AchE at 100 uM by Ellman's method

molecule: CCCNC(=O)O[C@H]1CO[C@H]2[C@@H]1OC[C@H]2O[N+](=O)[O-]
assay-target: Acetylcholinesterase (Electrophorus electricus) (UniProt O42275)
unit-string: %
inhibition: 1
--
molecule: CS(=O)(=O)OC(=O)O[C@@H]1CO[C@H]2[C@@H]1OC[C@@H]2OC(=O)NCc1ccccc1
assay-target: Acetylcholinesterase (Electrophorus electricus) (UniProt O42275)
unit-string: %
inhibition: 3
--
molecule: O=C(Nc1cccc(Cl)c1)O[C@H]1CO[C@H]2[C@@H]1OC[C@H]2O[N+](=O)[O-]
assay-target: Acetylcholinesterase (Electrophorus electricus) (UniProt O42275)
unit-string: %
inhibition: 24
--
molecule: O=C(NCc1ccccc1)O[C@H]1CO[C@H]2[C@@H]1OC[C@H]2OC(=O)c1ccccc1
assay-target: Acetylcholinesterase (Electrophorus electricus) (UniProt O42275)
unit-string: %
inhibition: 21
--
molecule: O=C(NCc1ccccc1)O[C@H]1CO[C@H]2[C@@H]1OC[C@H]2O[N+](=O)[O-]
assay-target: Acetylcholinesterase (Electrophorus electricus) (UniProt O42275)
unit-string: %
inhibition: 35
--
molecule: CCC(C)NC(=O)O[C@H]1CO[C@H]2[C@@H]1OC[C@H]2OC(=O)c1ccccc1 (some centres undefined)
assay-target: Acetylcholinesterase (Electrophorus electricus) (UniProt O42275)
unit-string: %
inhibition: 31
--
molecule: O=C(NC1CCCCC1)O[C@H]1CO[C@H]2[C@@H]1OC[C@H]2O[N+](=O)[O-]
assay-target: Acetylcholinesterase (Electrophorus electricus) (UniProt O42275)
unit-string: %
inhibition: 30
--
molecule: O=C(NCc1ccccc1)O[C@H]1CO[C@H]2[C@@H]1OC[C@H]2OC(=O)c1ccncc1
assay-target: Acetylcholinesterase (Electrophorus electricus) (UniProt O42275)
unit-string: %
inhibition: 24
--
molecule: O=C(NCc1ccccc1)O[C@H]1CO[C@H]2[C@@H]1OC[C@H]2OC(=O)c1cccc2ccccc12
assay-target: Acetylcholinesterase (Electrophorus electricus) (UniProt O42275)
unit-string: %
inhibition: 86

----------
- assay-target: Acetylcholinesterase (Electrophorus electricus, UniProt O42275)
- Sequence (O42275 whole entry): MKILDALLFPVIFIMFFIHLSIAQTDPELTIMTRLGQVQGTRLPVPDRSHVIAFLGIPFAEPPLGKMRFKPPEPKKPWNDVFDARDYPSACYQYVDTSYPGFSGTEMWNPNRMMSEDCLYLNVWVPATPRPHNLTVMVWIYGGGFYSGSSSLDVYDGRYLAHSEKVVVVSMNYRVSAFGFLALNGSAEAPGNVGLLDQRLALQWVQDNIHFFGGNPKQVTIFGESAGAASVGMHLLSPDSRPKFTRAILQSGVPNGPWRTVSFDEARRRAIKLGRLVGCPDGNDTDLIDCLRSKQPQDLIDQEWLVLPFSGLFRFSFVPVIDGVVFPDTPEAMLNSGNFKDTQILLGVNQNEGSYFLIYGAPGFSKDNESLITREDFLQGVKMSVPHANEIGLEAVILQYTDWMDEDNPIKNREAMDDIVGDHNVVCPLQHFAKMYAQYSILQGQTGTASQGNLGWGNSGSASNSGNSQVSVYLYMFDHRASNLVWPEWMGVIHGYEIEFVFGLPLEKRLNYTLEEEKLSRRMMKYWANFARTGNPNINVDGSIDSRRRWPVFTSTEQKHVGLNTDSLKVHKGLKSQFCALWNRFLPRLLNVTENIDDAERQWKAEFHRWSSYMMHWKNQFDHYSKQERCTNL
pIC50: −log10 of the molar value.
Each item that follows carries a reported pIC50.
value-kind: pIC50

input-smiles: CCCCNC(=O)O[C@H]1CO[C@H]2[C@@H]1OC[C@H]2O[N+](=O)[O-]
value-kind: pIC50
quantitative-readout: 2.84

input-smiles: O=C(NCc1ccccc1)O[C@H]1CO[C@H]2[C@@H]1OC[C@H]2OC(=O)c1ccc2ccccc2c1
value-kind: pIC50
quantitative-readout: 4.36

input-smiles: O=C(/C=C/c1ccccc1)O[C@@H]1CO[C@H]2[C@@H]1OC[C@@H]2OC(=O)NCc1ccccc1
value-kind: pIC50
quantitative-readout: 4.25

input-smiles: O=C(NCc1ccccc1)O[C@H]1CO[C@H]2[C@@H]1OC[C@H]2OC(=O)C1CCCC1
value-kind: pIC50
quantitative-readout: 4.25

input-smiles: CNC(=O)O[C@H]1CO[C@H]2[C@@H]1OC[C@H]2O[N+](=O)[O-]
value-kind: pIC50
quantitative-readout: 4.76
